Assignment: determine reported Mito-Safety Index (highest safe dose/EC50) for the given compounds.
- Test system: SKOV3 cells
- experimental details: In vitro mitosafety (glucose/galactose) assay
- Assay type: cell-based
- condition details: highest mito-safe dose (gal/glc >0.80, IC20, SKOV3 cells, 20 hours) divided by mt-Keima EC50
Please reply with the number alone, leaving off any unit.

Req: Note Mito-Safety Index (highest safe dose/EC50) for the compound shown: OC1([C@H]2COc3ccccc3[C@@H]2Nc2ncnc3[nH]c(C(F)(F)F)cc23)CCOCC1
Resp: 114.63

Req: Note Mito-Safety Index (highest safe dose/EC50) for the compound shown: FC(F)(F)c1cc2c(N[C@H]3c4ccccc4OC[C@@H]3N3CCCC3)ncnc2[nH]1
Resp: 60.76

Req: Note Mito-Safety Index (highest safe dose/EC50) for the compound shown: CO[C@H]1CCCN([C@H]2COc3ccccc3[C@@H]2Nc2ncnc3[nH]c(C4CC4)cc23)C1
Resp: 37.03

Req: Note Mito-Safety Index (highest safe dose/EC50) for the compound shown: N#C[C@H]1CCN([C@H]2COc3ccccc3[C@@H]2Nc2ncnc3[nH]c(C(F)(F)F)cc23)C1
Resp: 120.52

Req: Note Mito-Safety Index (highest safe dose/EC50) for the compound shown: FC(F)(F)O[C@H]1CCN([C@H]2COc3ccccc3[C@@H]2Nc2ncnc3[nH]c(C(F)(F)F)cc23)C1
Resp: 44.4

Req: Note Mito-Safety Index (highest safe dose/EC50) for the compound shown: FC(F)C1CCN([C@H]2COc3ccccc3[C@@H]2Nc2ncnc3[nH]c(C(F)(F)F)cc23)C1 (stereo partly shown)
Resp: 95.0

Req: Note Mito-Safety Index (highest safe dose/EC50) for the compound shown: CO[C@H]1CCCN([C@H]2COc3ccccc3[C@@H]2Nc2ncnc3[nH]c(C(F)(F)F)cc23)C1
Resp: 48.93

----------
- Tested on: SKOV3 cells
- experimental details: In vitro mitosafety (glucose/galactose) assay
- Type: cell-based
- condition details: highest mito-safe dose (gal/glc >0.80, IC20, SKOV3 cells, 20 hours) divided by mt-Keima EC50
Categories are defined by ranges of Mito-Safety Index (highest safe dose/EC50), namely b0 (below 60), b1 (60 to below 90), b2 (90 or more)

Req: Given C[C@@H]1CCN([C@H]2COc3ccccc3[C@@H]2Nc2ncnc3[nH]c(C(F)(F)F)cc23)C1 , name the class its Mito-Safety Index (highest safe dose/EC50) places it in.
Resp: b1

Req: Given Fc1ccc2c(c1)OC[C@H](N1CCOC3(CC3)C1)[C@H]2Nc1ncnc2[nH]c(C(F)(F)F)cc12 , name the class its Mito-Safety Index (highest safe dose/EC50) places it in.
Resp: b0

Req: Given FC(F)(F)C1CN([C@H]2COc3ccccc3[C@@H]2Nc2ncnc3[nH]c(C4CC4)cc23)CCO1 (single isomer, unassigned) , name the class its Mito-Safety Index (highest safe dose/EC50) places it in.
Resp: b0

Req: Given FC(F)(F)c1cc2c(N[C@H]3c4ccccc4OC[C@@H]3N3CCOC4(CC4)C3)nccc2[nH]1 , name the class its Mito-Safety Index (highest safe dose/EC50) places it in.
Resp: b2

Req: Given C[C@@H]1CN([C@H]2COc3cccc(F)c3[C@@H]2Nc2ncnc3[nH]c(C(F)(F)F)cc23)CCO1 , name the class its Mito-Safety Index (highest safe dose/EC50) places it in.
Resp: b0

Req: Given C[C@@H]1CN([C@H]2COc3cc(F)ccc3[C@@H]2Nc2ncnc3[nH]c(C4CCC4)cc23)CCO1 , name the class its Mito-Safety Index (highest safe dose/EC50) places it in.
Resp: b2

Req: Given FC(F)(F)c1cc2c(N[C@H]3c4ccccc4OC[C@@H]3N3CCOC4(CC4)C3)ncnc2[nH]1 , name the class its Mito-Safety Index (highest safe dose/EC50) places it in.
Resp: b1

Req: Given FC(F)(F)c1cc2c(N[C@H]3c4ccccc4OC[C@@H]3N3CCCC3)nccc2[nH]1 , name the class its Mito-Safety Index (highest safe dose/EC50) places it in.
Resp: b1

Req: Given c1ccc2c(c1)OC[C@H](N1CCC3(CCCO3)C1)[C@H]2Nc1ncnc2[nH]c(C3CC3)cc12 (single isomer, unassigned) [EP-0042934] , name the class its Mito-Safety Index (highest safe dose/EC50) places it in.
Resp: b0

Req: Given FC1CN([C@H]2COc3ccccc3[C@@H]2Nc2nccc3[nH]c(C(F)(F)F)cc23)C1 , name the class its Mito-Safety Index (highest safe dose/EC50) places it in.
Resp: b2

Req: Given FC1(F)CCN([C@H]2COc3ccccc3[C@@H]2Nc2ncnc3[nH]c(C4CC4)cc23)C1 , name the class its Mito-Safety Index (highest safe dose/EC50) places it in.
Resp: b2

Req: Given Fc1ccc2c(c1)OC[C@H](N1CCC3(CC3)C1)[C@H]2Nc1ncnc2[nH]c(C(F)(F)F)cc12 , name the class its Mito-Safety Index (highest safe dose/EC50) places it in.
Resp: b1

Req: Given F[C@H]1CCN([C@H]2COc3ccccc3[C@@H]2Nc2nccc3[nH]c(C(F)(F)F)cc23)C1 , name the class its Mito-Safety Index (highest safe dose/EC50) places it in.
Resp: b1

Req: Given OC1([C@H]2COc3ccccc3[C@@H]2Nc2ncnc3[nH]c(C4CC4)cc23)CCOCC1 , name the class its Mito-Safety Index (highest safe dose/EC50) places it in.
Resp: b2
